# measured-target: human FGFR2b protein (recombinant, coated on ELISA plates) (human) (UniProt P21802)
# Sequence (P21802 other isoform, or with tags, fused parts or gaps limits assumed): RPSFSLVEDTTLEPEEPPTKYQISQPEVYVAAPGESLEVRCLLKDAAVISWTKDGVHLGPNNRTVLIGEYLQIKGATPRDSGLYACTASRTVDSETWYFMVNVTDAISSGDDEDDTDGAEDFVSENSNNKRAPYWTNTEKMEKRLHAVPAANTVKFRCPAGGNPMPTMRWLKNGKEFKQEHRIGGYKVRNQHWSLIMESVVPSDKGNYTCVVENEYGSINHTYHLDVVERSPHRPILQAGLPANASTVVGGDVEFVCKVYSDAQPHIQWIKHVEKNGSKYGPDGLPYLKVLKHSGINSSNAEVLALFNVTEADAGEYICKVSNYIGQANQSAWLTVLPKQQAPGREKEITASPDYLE
# procedure-summary: ELISA, plate-coated human FGFR2b

{"binder": "BGAm1371 (antibody, V domains shown) VH: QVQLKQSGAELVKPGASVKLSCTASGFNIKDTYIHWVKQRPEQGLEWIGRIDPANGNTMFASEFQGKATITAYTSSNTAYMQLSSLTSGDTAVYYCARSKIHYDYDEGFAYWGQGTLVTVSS VL: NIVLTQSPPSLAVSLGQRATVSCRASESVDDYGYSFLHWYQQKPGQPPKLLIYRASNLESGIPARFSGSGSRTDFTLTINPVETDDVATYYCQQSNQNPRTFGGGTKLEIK", "Emax (A450)": 3.01}
